The measurements presented in this section are drawn from paper PMC10005332.

- Test system: B16 (murine melanoma)
- measurement.description: MTT cytotoxicity assay, B16
- Assay type: cell-based
- test.conditions: Mus musculus; MTT, 72 h exposure, three independent experiments; read-out: Cytotoxic activity IC50 (95% CI) B16
Lab note: compare IC50 with 9 µM, writing 1 if less and -1 if equal or more.

Q: Lab note: IC50 threshold 9 µM. Does this molecule come in strictly under it? O=C1C(=O)c2ccccc2C2=C1CC(Cn1cc(CNC3=CC(=O)c4cc5ccccc5cc4C3=O)nn1)O2 (stereo not drawn) [Compound 20e]
A: -1

Q: Try C#CCNC1=CC(=O)c2cccc(OC)c2C1=O [Compound 18c] next.
A: -1

Q: Try [N-]=[N+]=NCC1CC2=C(O1)c1ccccc1C(=O)C2=O (stereo not drawn) next.
A: 1

Q: Try CC1(C)OC2=C(C(=O)C(=O)c3ccccc32)C1n1cc(CNC2=CC(=O)c3c(I)cccc3C2=O)nn1 (stereo not drawn) [Compound 19a] next.
A: 1

Q: Try COc1cccc2c1C(=O)c1c(O)c3c(c(O)c1C2=O)C[C@@](O)(C(=O)CO)C[C@@H]3O[C@H]1C[C@H](N)[C@H](O)[C@H](C)O1 [DOXO, doxorubicin, reference compound] next.
A: 1

Q: Try COc1cccc2c1C(=O)C(NCc1cn(C3C4=C(OC3(C)C)c3ccccc3C(=O)C4=O)nn1)=CC2=O (stereo not drawn) [Compound 19c] next.
A: 1

Q: Try COc1cccc2c1C(=O)C(NCc1cn(CC3CC4=C(OC3(C)C)c3ccccc3C(=O)C4=O)nn1)=CC2=O (stereo not drawn) [Compound 21c] next.
A: 1

Q: Try CC1(C)OC2=C(C(=O)C(=O)c3ccccc32)C1n1cc(CNC2=CC(=O)c3c(O)cccc3C2=O)nn1 (stereo not drawn) [Compound 19b] next.
A: 1

Q: Try C#CCNC1=CC(=O)c2c(O)cccc2C1=O [Compound 18b] next.
A: 1

Q: Try CC1(C)OC2=C(C(=O)C(=O)c3ccccc32)C1N=[N+]=[N-] (stereo not drawn) next.
A: 1

Q: Try CC1(C)OC2=C(CC1Cn1cc(CNC3=CC(=O)c4cc5ccccc5cc4C3=O)nn1)C(=O)C(=O)c1ccccc12 (stereo not drawn) [Compound 21e] next.
A: 1

Q: Try C#CCNC1=CC(=O)c2cc3ccccc3cc2C1=O [Compound 18e] next.
A: -1

Q: Try CC1(C)OC2=C(C(=O)C(=O)c3ccccc32)C1n1cc(CNC2=CC(=O)c3cccc(OCc4ccccc4)c3C2=O)nn1 (stereo not drawn) [Compound 19d] next.
A: 1

Q: Try COc1cccc2c1C(=O)C(NCc1cn(CC3CC4=C(O3)c3ccccc3C(=O)C4=O)nn1)=CC2=O (stereo not drawn) [Compound 20c] next.
A: -1

----------
- Test system: K-562 (human chronic myeloid leukaemia)
- measurement.description: MTT cytotoxicity assay, K-562
- Type: cell-based
- test.conditions: Homo sapiens, K562; MTT, 72 h exposure, three independent experiments; read-out: Cytotoxic activity IC50 (95% CI) K-562
Kindly state IC50 for each of the entries shown.

Q: Entry under review: C#CCNC1=CC(=O)c2cccc(OC)c2C1=O [Compound 18c] . Reported IC50?
A: > 100 µM

Q: Try COc1cccc2c1C(=O)C(NCc1cn(CC3CC4=C(O3)c3ccccc3C(=O)C4=O)nn1)=CC2=O (stereo not drawn) [Compound 20c] next.
A: > 100 µM

Q: Try C#CCNC1=CC(=O)c2cc3ccccc3cc2C1=O [Compound 18e] next.
A: > 100 µM
